Exercise: state measured MIC for each of the compounds provided.
Number in µg/mL, nothing else.

// query Specify the recorded MIC for CCN[C@@H]1C[C@H](N)[C@@H](O[C@H]2OC(CN)=CC[C@H]2N)C(F)(F)[C@H]1O[C@H]1OC[C@](C)(O)[C@H](NC)[C@H]1O [5FF-Netilmicin, 5-deoxy-5,5-difluoronetilmicin] , system: Bacillus subtilis PCI219.
// result 0.39

// query Provide Bacillus subtilis PCI219 MIC reading for NC[C@H]1O[C@H](O[C@@H]2[C@@H](N)C[C@@H](N)[C@H](O[C@H]3O[C@H](CO)[C@@H](O)[C@H](N)[C@H]3O)C2(F)F)[C@H](N)C[C@@H]1O [Compound 5FF-TOB, 5-deoxy-5,5-difluorotobramycin] .
// result 0.39

// query # lookup: Bacillus subtilis PCI219 MIC, key = CN[C@@H]1[C@@H](O)[C@@H](O[C@H]2[C@H](N)C[C@H](N)[C@@H](O[C@H]3O[C@H]([C@@H](C)NC)CC[C@H]3N)C2(F)F)OC[C@]1(C)O [Compound 5FF-Genta-C1, 5-deoxy-5,5-difluorogentamicin C1]
// result 1.56

// query Provide Bacillus subtilis PCI219 MIC reading for NC[C@H]1O[C@H](O[C@@H]2[C@@H](N)C[C@@H](N)[C@H](O[C@H]3O[C@H](CO)[C@@H](O)[C@H](N)[C@H]3O)C2(F)F)[C@H](O)[C@@H](O)[C@@H]1O [Compound 5FF-KMA, 5-deoxy-5,5-difluorokanamycin A] .
// result 0.78
